Entries and their measured bioavailability follow.
- protocol: Oral bioavailability in dog at 3 mg/kg
- Type: ADME, organism-based, Canis lupus familiaris
- assay conditions: in vivo
State the answer as a number, implicitly in %.

Q: Requested field: bioavailability. Item: `Cc1ccnc(C2(C#N)CCN(Cc3cc(C(=O)O)c(=O)n4ccccc34)CC2)c1`
Result: 47

Q: Can you check `N#CC1(c2ccccn2)CCN(Cc2cc(C(=O)O)c(=O)n3ccccc23)CC1` next?
Result: 62

* * *

- target or system: Voltage-gated inwardly rectifying potassium channel KCNH2 (Homo sapiens)
- Sequence (Q12809 whole entry): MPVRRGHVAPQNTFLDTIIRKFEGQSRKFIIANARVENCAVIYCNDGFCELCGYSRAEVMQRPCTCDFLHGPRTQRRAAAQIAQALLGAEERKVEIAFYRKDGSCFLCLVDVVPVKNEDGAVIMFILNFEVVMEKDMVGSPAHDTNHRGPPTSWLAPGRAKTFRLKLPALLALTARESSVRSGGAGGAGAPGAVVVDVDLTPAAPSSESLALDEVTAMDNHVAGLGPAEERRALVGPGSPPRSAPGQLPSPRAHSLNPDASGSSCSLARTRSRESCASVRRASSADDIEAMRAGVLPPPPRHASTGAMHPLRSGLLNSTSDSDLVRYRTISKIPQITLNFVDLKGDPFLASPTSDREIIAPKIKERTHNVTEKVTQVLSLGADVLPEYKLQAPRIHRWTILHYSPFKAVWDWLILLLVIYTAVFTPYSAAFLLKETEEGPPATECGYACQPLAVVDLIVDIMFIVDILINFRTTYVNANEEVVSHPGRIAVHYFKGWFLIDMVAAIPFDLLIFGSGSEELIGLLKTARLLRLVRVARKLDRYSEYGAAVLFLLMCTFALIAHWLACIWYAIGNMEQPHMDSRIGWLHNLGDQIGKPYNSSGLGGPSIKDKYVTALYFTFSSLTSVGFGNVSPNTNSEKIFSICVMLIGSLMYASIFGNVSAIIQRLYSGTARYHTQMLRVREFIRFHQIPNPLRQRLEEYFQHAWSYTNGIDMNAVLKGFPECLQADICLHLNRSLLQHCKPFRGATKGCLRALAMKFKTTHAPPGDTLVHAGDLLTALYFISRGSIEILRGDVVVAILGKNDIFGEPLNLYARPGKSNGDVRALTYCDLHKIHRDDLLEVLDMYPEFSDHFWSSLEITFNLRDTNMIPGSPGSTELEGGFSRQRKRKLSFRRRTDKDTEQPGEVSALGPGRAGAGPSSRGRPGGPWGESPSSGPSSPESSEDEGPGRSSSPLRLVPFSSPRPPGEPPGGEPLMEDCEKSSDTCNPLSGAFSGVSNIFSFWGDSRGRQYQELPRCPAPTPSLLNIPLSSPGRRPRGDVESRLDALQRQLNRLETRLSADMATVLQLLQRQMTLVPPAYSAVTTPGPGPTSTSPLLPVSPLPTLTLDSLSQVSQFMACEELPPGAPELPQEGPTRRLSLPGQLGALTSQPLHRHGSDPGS
- protocol: Inhibition of human ERG
pIC50: −log10 of the molar value.
measurement name: pIC50

Q: Quick check: pIC50 on Voltage-gated inwardly rectifying potassium channel KCNH2 (Homo sapiens), item `N#CC1(c2ccccn2)CCN(Cc2cc(C(=O)O)c(=O)n3ccccc23)CC1` ?
Result: < 4.52

The values you see were collected from ChEMBL document CHEMBL1799933.
